measurement-target: affinity purified β2GPI-dependent antiphospholipid antibody
protocol-text: Competitive inhibition ELISA: recombinant β2GPI proteins compete for antibody binding to coated full length recombinant β2GPI
Design: species or system human
condition-label: Ab 7015; read-out: 50% (concentration to give 50% inhibition)
observation-type: IC50

The cases that follow already have their IC50 on record.
{"molecule": "--345: recombinant β2GPI deletion mutant with domains 3, 4, 5 (protein) GRIICPPPSIPTFATLRVYKPSAGNNSLYRDTAVFECLPQHAMFGNDTITCTTHGNWTKLPECREVKCPFPSRPDNGFVNYPAKPTLYYKDKATFGCHDGYSLDGPEEIECTKLGNWSAMPSCKASCKLPVKKATVVYQGERVKIQEKFKNGMLHGDKVSFFCKNKEKKCSYTEDAQCIDGTIEVPKCFKEHSSLAFWKTDASDVKPCGHHHHHH", "IC50": "> 50 µM"}
{"molecule": "12---: recombinant β2GPI deletion mutant with domains 1 and 2 (protein) GRTCPKPDDLPFSTVVPLKTFYEPGEEITYSCKPGYVSRGGMRKFICPLTGLWPINTLKCTPRVCPFAGILENGAVRYTTFEYPNTISFSCNTGFYLNGADSAKCTEEGKWSPELPVCAPIIGHHHHHH", "IC50": "> 10 µM"}

Below: the item to evaluate.
Query: IC50; subject: 1234-: recombinant β2GPI deletion mutant with domains 1, 2, 3, 4 (protein) GRTCPKPDDLPFSTVVPLKTFYEPGEEITYSCKPGYVSRGGMRKFICPLTGLWPINTLKCTPRVCPFAGILENGAVRYTTFEYPNTISFSCNTGFYLNGADSAKCTEEGKWSPELPVCAPIICPPPSIPTFATLRVYKPSAGNNSLYRDTAVFECLPQHAMFGNDTITCTTHGNWTKLPECREVKCPFPSRPDNGFVNYPAKPTLYYKDKATFGCHDGYSLDGPEEIECTKLGNWSAMPSCGHHHHHH
8 µM
